System: Erysiphae graminis
Test: Fungicidal activity against Barley Powdery Mildew (BPM) disease
Format: in vivo
Settings: Barley Powdery Mildew; concentration 2 ppm
Measured BPM (Fungicidal Activities, C.V.) of individual entries

chemical.smiles	unit.string	BPM (Fungicidal Activities, C.V.)
COC=C(C(=O)OC)c1ccccc1CON=C(C)c1cccc(OC(F)=C(c2cccc(F)c2)C(F)(F)F)c1	%	99
COC=C(C(=O)OC)c1ccccc1CON=C(C)c1cccc(OC(F)=Cc2ccc(OC)cc2)c1	%	100
CNC(=O)C(=NOC)c1ccccc1CON=C(C)c1cccc(OC(F)=Cc2cccc(C)c2)c1	%	100
CCc1ccc(C=C(F)Oc2cccc(C=NOCc3ccccc3C(=NOC)C(=O)NC)c2)cc1	%	0
CON=C(C(=O)OC)c1ccccc1CON=C(C)c1cccc(OC(F)=Cc2cccc(C)c2)c1	%	99
CCc1ccc(C=C(F)Oc2cccc(C(C)=NOCc3ccccc3C(=NOC)C(=O)NC)c2)cc1	%	100
CCOc1ccc(C=C(F)Oc2cccc(C=NOCc3ccccc3C(=NOC)C(=O)NC)c2)cc1	%	0
CON=C(C(=O)OC)c1ccccc1CON=C(C)c1cccc(OC(F)=Cc2cc(C)cc(C)c2)c1	%	100

###

Test system: Erysiphae graminis
Assay: Fungicidal activity against Barley Powdery Mildew (BPM) disease
Assay type: in vivo
Details: Barley Powdery Mildew; concentration 2 ppm
reported.property: BPM (Fungicidal Activities, C.V.) (%)

molecule	target.or.test.system	unit.string	val
CON=C(C(=O)OC)c1ccccc1CON=C(c1cccc(OC(F)=Cc2ccccc2)c1)C(F)(F)F [Compound 102]	Erysiphae graminis	%	97
COC=C(C(=O)OC)c1ccccc1CON=C(c1cccc(OC(F)=Cc2ccc3c(c2)OCO3)c1)C(F)(F)F [Compound 94]	Erysiphae graminis	%	100
CNC(=O)C(=NOC)c1ccccc1CON=Cc1cccc(OC(F)=C(c2ccccc2)C(F)(F)F)c1 [Compound 139]	Erysiphae graminis	%	97
CON=C(C(=O)OC)c1ccccc1CON=C(C)c1cccc(OC(F)=Cc2ccc(OC)cc2)c1 [Compound 72]	Erysiphae graminis	%	100
CNC(=O)/C(=N/OC)c1ccccc1CON=C(C)c1cccc(OC(F)=Cc2ccccc2)c1 [Compound 77]	Erysiphae graminis	%	100
COC=C(C(=O)OC)c1ccccc1CON=C(C)c1cccc(OC(F)=C(c2cc(C)cc(C)c2)C(F)(F)F)c1 [Compound 154]	Erysiphae graminis	%	68

###

System: Phytophthora infestans
Assay type: in vivo
Conditions: Tomato Late Blight; concentration 2 ppm
// NB: equality with 20% counts as FALSE; only TLB (Fungicidal Activities, C.V.) strictly below is TRUE

chemical.smiles	qualitative.label
CO/C=C(/C(=O)OC)c1ccccc1CON=C(C)c1cccc(OC(F)=Cc2ccccc2)c1	TRUE
CON=C(C(=O)OC)c1ccccc1CON=Cc1cccc(OC(F)=Cc2ccc(C)cc2)c1	FALSE
CCc1ccc(C=C(F)Oc2cccc(C(C)=NOCc3ccccc3C(=NOC)C(=O)NC)c2)cc1	FALSE
CNC(=O)C(=NOC)c1ccccc1CON=C(C)c1cccc(OC(F)=Cc2cccc(C)c2)c1	FALSE
CON=C(C(=O)OC)c1ccccc1CON=Cc1cccc(OC(F)=Cc2ccc3c(c2)OCO3)c1	FALSE
CNC(=O)/C(=N/OC)c1ccccc1CON=C(C)c1cccc(OC(F)=Cc2ccccc2)c1	FALSE
CNC(=O)C(=NOC)c1ccccc1CON=C(C)c1cccc(OC(F)=Cc2cccc(OC)c2)c1	TRUE
CON=C(C(=O)OC)c1ccccc1CON=C(C)c1cccc(OC(F)=Cc2ccc(F)cc2)c1	TRUE
CON=C(C(=O)OC)c1ccccc1CON=C(C)c1cccc(OC(F)=Cc2ccc(Cl)cc2)c1	TRUE
CNC(=O)C(=NOC)c1ccccc1CON=C(C)c1cccc(OC(F)=Cc2ccc(F)cc2)c1	FALSE
CON=C(C(=O)OC)c1ccccc1CON=C(C)c1cccc(OC(F)=Cc2ccc(OC)cc2)c1	TRUE
CON=C(C(=O)OC)c1ccccc1CON=C(C)c1cccc(OC(F)=Cc2cccc(Cl)c2)c1	TRUE
CON=C(C(=O)OC)c1ccccc1CON=C(C)c1cccc(OC(F)=Cc2cccc(OC)c2)c1	FALSE
CCOc1ccc(C=C(F)Oc2cccc(C(C)=NOCc3ccccc3C(=NOC)C(=O)OC)c2)cc1	TRUE
CON=C(C(=O)OC)c1ccccc1CON=Cc1cccc(OC(F)=Cc2ccc(Cl)cc2)c1	FALSE

###

System: Botrytis cinerae
Test: Fungicidal activity against Cucumber Gray Mold Rot (CGM) disease
Format: in vivo
Settings: Cucumber Gray Mold Rot; concentration 50 ppm

compound	target.or.test.system	CGM (Fungicidal Activities, C.V.), %
COC=C(C(=O)OC)c1ccccc1CON=C(C)c1cccc(OC(F)=C(c2cc(C)cc(C)c2)C(F)(F)F)c1 [Compound 154]	Botrytis cinerae	58
CNC(=O)C(=NOC)c1ccccc1CON=C(C)c1cccc(OC(F)=Cc2ccc(F)cc2)c1 [Compound 82]	Botrytis cinerae	82
CCCCc1ccc(C(=C(F)Oc2cccc(C(C)=NOCc3ccccc3C(=COC)C(=O)OC)c2)C(F)(F)F)cc1 [Compound 156]	Botrytis cinerae	36
CCc1ccc(C=C(F)Oc2cccc(C(C)=NOCc3ccccc3C(=COC)C(=O)NC)c2)cc1 [Compound 59]	Botrytis cinerae	0
CO/N=C(/C(=O)OC)c1ccccc1CON=C(C)c1cccc(OC(F)=Cc2ccccc2)c1 [Compound 64]	Botrytis cinerae	75
CON=C(C(=O)OC)c1ccccc1CON=Cc1cccc(OC(F)=Cc2ccccc2)c1 [Compound 24]	Botrytis cinerae	50
CON=C(C(=O)OC)c1ccccc1CON=C(c1cccc(OC(F)=Cc2ccccc2)c1)C(F)(F)F [Compound 102]	Botrytis cinerae	23
CCOc1ccc(C=C(F)Oc2cccc(C(C)=NOCc3ccccc3C(=NOC)C(=O)OC)c2)cc1 [Compound 73]	Botrytis cinerae	0
COC=C(C(=O)OC)c1ccccc1CON=C(C)c1cccc(OC(F)=Cc2ccc(Cl)c(C)c2)c1 [Compound 52]	Botrytis cinerae	52
COC=C(C(=O)OC)c1ccccc1CON=C(c1cccc(OC(F)=Cc2cccc(F)c2)c1)C(F)(F)F [Compound 90]	Botrytis cinerae	9
COC=C(C(=O)OC)c1ccccc1CON=C(C)c1cccc(OC(F)=Cc2ccc(OC)cc2)c1 [Compound 48]	Botrytis cinerae	64
CON=C(C(=O)OC)c1ccccc1CON=C(C)c1cccc(OC(F)=Cc2ccc(Cl)cc2)c1 [Compound 76]	Botrytis cinerae	62
CCc1ccc(C=C(F)Oc2cccc(C=NOCc3ccccc3C(=COC)C(=O)OC)c2)cc1 [Compound 6]	Botrytis cinerae	44

###

Tested on: Erysiphae graminis
Assay: Fungicidal activity against Barley Powdery Mildew (BPM) disease
Type: in vivo
Settings: Barley Powdery Mildew; concentration 50 ppm
reported.property: BPM (Fungicidal Activities, C.V.)

compound	target.or.test.system	val
CON=C(C(=O)OC)c1ccccc1CON=Cc1cccc(OC(F)=Cc2ccc(F)cc2)c1 [Compound 27]	Erysiphae graminis	91%
COC=C(C(=O)OC)c1ccccc1CON=C(C)c1cccc(OC(F)=C(c2ccc(C)cc2)C(F)(F)F)c1 [Compound 152]	Erysiphae graminis	100%
COC=C(C(=O)OC)c1ccccc1CON=C(C)c1cccc(OC(F)=C(c2ccccc2)C(F)(F)F)c1 [Compound 150]	Erysiphae graminis	100%
CCc1ccc(C=C(F)Oc2cccc(C(C)=NOCc3ccccc3C(=COC)C(=O)NC)c2)cc1 [Compound 59]	Erysiphae graminis	91%
CNC(=O)C(=NOC)c1ccccc1CON=Cc1cccc(OC(F)=Cc2ccc3c(c2)OCO3)c1 [Compound 39]	Erysiphae graminis	100%
CON=C(C(=O)OC)c1ccccc1CON=C(C)c1cccc(OC(F)=Cc2ccc(C)c(C)c2)c1 [Compound 67]	Erysiphae graminis	100%
